Tested on: HPV-16
assay.remarks: qPCR sensitivity against HPV-HNSCC tumor samples diluted among 10 ng normal human DNA
measurement.parameters: Sample # 24
readout.kind: Threshold of tumor cell numbers for HPV-16 detection (tumor cells)
Give the value, in units of tumor cells, as a plain number.

# molecule, value
rows = [
    ("BR E6-1: HPV-16 E6 region (172-373 bp) primer/probe set, SEQ ID NO: 58-60 (nucleic acid, chemistry not given here) DNA 1: CAGTTACTGCGACGTGAGGT DNA 2: ACAGCATATGGATTCCCATCTC DNA 3: ACTTTGCTTTTCGGGATTTATGCATAGTA", 1.2),
]

Using the record for BR E1-5: HPV-16 E1 region primer/probe set, SEQ ID NO: 40-42 (same as SEQ ID NO: 1-3) (nucleic acid, chemistry not given here) DNA 1: GCACAATTGGCAGACACTAAT DNA 2: GCACAATCCTTTACAATTTTTGCC DNA 3: AGTAATGCAAGTGCCTTTCTAAAAAGTAATTC , report its Threshold of tumor cell numbers for HPV-16 detection. 0.6

And what about the molecule E7: previously designed (historical) HPV-16 E7 primers and Taqman probe, SEQ ID NO: 10-12; part of CLIA test (nucleic acid, Taqman probe, labels not given here, part of CLIA test) DNA 1: CCGGACAGAGCCCATTACAA DNA 2: CGAATGTCTACGTGTGTGCTTTG DNA 3: CGCACAACCGAAGCGTAGAGTCACACT ? 1.2

Follow-up entry: E6: previously designed (historical) HPV-16 E6 primers and Taqman probe, SEQ ID NO: 7-9, positive control (nucleic acid, Taqman probe, labels not given here) DNA 1: TCAGGACCCACAGGAGCG DNA 2: CCTCACGTCGCAGTAACTGTTG DNA 3: CCCAGAAAGTTACCACAGTTATGCACAGAGCT 1.2
